- experimental_target: human recombinant GPR65 (Homo sapiens)
- Sequence (Q8IYL9 whole entry): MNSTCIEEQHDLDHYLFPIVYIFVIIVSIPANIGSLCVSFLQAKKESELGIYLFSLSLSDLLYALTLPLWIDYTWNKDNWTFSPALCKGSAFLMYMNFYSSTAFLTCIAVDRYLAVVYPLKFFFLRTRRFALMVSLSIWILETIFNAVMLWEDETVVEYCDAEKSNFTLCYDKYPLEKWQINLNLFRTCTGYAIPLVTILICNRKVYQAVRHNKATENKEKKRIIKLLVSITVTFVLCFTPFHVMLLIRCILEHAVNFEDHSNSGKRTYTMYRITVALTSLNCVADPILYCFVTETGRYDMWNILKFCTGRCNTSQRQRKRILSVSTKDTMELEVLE
- method_summary: Human GPR65 cAMP HTRF antagonist assay
- measurement_context: 1321N1 cells stably expressing human recombinant GPR65, assay pH 7.2, read-out: hGPR65 IC50
pIC50: −log10 of the molar value.
Below, each entry is listed alongside its reported pIC50.

{"molecule": "CC1CN(C(=O)Nc2cc(Cl)c(C(F)(F)F)cc2F)Cc2c[nH]c(=O)cc21 (racemic)", "pIC50": "> 6.30"}
{"molecule": "C=C1CN(C(=O)Nc2cc(Cl)c(C(F)(F)F)cc2F)Cc2cnc(F)cc21", "pIC50": "5.30 to 6.30"}
{"molecule": "O=C(Nc1cc(Cl)c(C(F)(F)F)cc1F)N1CCc2cc(=O)[nH]cc2C1", "pIC50": "> 6.30"}
